Every entry's value here was drawn from PubChem BioAssay (NCI).

Tested on: HT29 colon
Test: NCI tumour cell line growth inhibition, 48 h; in the data active = GI50 below about 0.43 µM; inactive = the rest
Labels: active, inactive

{"compound": "COc1cc(C2C3=C(COC3=O)N(CCO)c3cc4c(cc32)CCC4)cc(OC)c1O (centres undefined)", "category": "active"}
{"compound": "O=C1c2cccnc2C(=O)c2c1c(C(=O)OCCCN1CCOCC1)c1ccccn21", "category": "active"}
{"compound": "O=C1c2c(O)cccc2C(C(=O)CCCCC(=O)C2c3cccc(O)c3C(=O)c3c(O)cccc32)c2cccc(O)c21", "category": "inactive"}
{"compound": "CC[C@@]1(OC(=O)CN)C(=O)OCc2c1cc1n(c2=O)Cc2cc3cc(N)ccc3nc2-1", "category": "active"}
{"compound": "Cc1ccc([P+](Cc2ccc([N+](=O)[O-])cc2)(c2ccc(C)cc2)c2ccc(C)cc2)cc1", "category": "inactive"}
{"compound": "CC(C)OP(=O)(CP(=O)(OC(C)C)OC(C)C)OC(C)C.[CH3][Sn]([Br])([Br])[Br]", "category": "inactive"}
{"compound": "Nc1ncnc2occ(-c3ccc(NC(=O)Nc4cc(C(F)(F)F)cc(C(F)(F)F)c4)cc3)c12", "category": "inactive"}
{"compound": "C/C(=C(/c1ccc(O)cc1)c1ccc(OCCN2CCCC2)cc1)c1ccccc1", "category": "inactive"}
{"compound": "COC(=O)c1cc(Nc2ccc(O)c3c2C(=O)c2c([N+](=O)[O-])ccc(O)c2C3=O)cc(C(=O)OC)c1", "category": "inactive"}
